# assaySystem: T1, Rb^P R741S (human, UniProt P06400 380-788, R741S)
# T1 construct: also called variant 70
# T1 sequence (looked up): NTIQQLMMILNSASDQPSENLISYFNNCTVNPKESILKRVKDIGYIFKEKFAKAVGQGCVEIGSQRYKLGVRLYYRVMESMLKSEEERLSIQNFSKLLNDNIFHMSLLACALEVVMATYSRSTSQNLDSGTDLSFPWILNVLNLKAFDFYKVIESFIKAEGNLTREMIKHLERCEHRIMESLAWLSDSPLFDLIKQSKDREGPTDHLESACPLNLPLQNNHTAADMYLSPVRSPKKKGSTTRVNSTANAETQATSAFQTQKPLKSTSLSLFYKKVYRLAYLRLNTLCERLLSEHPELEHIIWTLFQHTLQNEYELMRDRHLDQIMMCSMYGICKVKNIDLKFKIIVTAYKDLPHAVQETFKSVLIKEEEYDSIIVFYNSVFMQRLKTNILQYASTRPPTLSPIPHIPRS
# assayName: fluorescence polarisation; 37 °C, after the 25 °C reading ramped over 7 min to 37 °C and 2 min incubation; unlabeled Rb^P against 1.5 nM TMR-E2F1^TD or 7.5 nM TMR-E7^LxCxE; 25 mM Tris pH 8.0, 200 mM NaCl, 1 mM DTT, 0.1% Tween-20; apparent Kd
# runConditions: both partners purified
pKd: −log10 of the molar value. No end group written: not given here. TMR = tetramethyl rhodamine dye
pKd values, listed per item

binder: DLYCYEQLN (also: TMR label, position not given here, source: synthetic peptide, bought: GenScript) [TMR-E7^LxCxE, LxCxE peptide of the E7 oncoprotein from HPV]
pKd: 7.34
//
binder: {TMR}-GEGIRDLFDCDFGDLTPLD (also called E2F^TD; source: synthetic peptide, bought: GenScript) [TMR-E2F1^TD, peptide of the E2F1 transactivation domain]
pKd: 7.08
